# TARGET DESC: Angiotensin-converting enzyme (Rattus norvegicus)
# Sequence (whole entry): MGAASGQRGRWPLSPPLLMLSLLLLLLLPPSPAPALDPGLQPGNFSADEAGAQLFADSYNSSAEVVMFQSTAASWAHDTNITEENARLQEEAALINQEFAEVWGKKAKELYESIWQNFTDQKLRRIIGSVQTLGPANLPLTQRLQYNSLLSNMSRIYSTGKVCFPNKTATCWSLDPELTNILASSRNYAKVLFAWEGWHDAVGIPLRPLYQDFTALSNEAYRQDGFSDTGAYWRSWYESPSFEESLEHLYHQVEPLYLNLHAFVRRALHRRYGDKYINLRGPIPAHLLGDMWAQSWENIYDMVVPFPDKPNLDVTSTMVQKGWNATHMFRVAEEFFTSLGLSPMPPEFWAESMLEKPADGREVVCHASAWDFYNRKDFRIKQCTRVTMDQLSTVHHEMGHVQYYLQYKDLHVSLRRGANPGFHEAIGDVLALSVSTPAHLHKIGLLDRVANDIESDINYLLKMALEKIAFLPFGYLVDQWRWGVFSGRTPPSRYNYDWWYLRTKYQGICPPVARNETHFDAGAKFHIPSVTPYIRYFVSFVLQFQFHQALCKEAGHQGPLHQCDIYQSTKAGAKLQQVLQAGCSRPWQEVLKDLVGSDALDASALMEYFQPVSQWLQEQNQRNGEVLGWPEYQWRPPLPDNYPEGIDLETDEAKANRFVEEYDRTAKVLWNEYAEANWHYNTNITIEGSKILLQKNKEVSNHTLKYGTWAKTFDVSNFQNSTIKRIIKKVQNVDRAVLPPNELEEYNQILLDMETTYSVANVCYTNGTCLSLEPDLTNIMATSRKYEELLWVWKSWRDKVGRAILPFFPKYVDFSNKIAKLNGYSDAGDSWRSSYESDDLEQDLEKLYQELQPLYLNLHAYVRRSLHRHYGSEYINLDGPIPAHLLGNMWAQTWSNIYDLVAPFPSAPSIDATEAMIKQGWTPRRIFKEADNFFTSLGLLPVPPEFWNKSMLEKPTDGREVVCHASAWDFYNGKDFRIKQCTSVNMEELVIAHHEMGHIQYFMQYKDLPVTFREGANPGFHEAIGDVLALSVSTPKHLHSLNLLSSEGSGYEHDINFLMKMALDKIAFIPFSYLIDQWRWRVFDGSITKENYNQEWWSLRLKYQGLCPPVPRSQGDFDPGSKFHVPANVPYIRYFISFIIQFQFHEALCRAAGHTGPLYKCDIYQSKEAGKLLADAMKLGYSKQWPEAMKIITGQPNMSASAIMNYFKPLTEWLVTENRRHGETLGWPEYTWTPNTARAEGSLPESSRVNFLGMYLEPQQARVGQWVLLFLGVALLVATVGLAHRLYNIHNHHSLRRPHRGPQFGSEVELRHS
# ASSAY COMMENT: Compound was tested for plasma inhibition of Angiotensin I converting enzyme activity in the conscious rat. Expressed as Inhibition of AI pressor response at 4 hr at a dose of 10 mg/kg po
# Assay type: organism-based
# Parameters: dose 10 mg/kg
Here the recorded inhibition is given for each entry.
Supply the numeric figure in %, leaving out any unit text.

Known inhibition results, listed for orientation:
>  <GIVEN SMILES>
CCCCOC(=O)[C@H](Cc1ccc(OC)cc1)NC(=O)C1(NC(=O)[C@H](SC(C)=O)C(C)C)CCCC1

>  <PROPERTY>
inhibition

>  <RESULT VALUE>
65

$$$$
>  <GIVEN SMILES>
CCOC(=O)[C@H](CCc1ccccc1)N[C@H]1CCc2ccccc2N(CC(=O)O)C1=O

>  <PROPERTY>
inhibition

>  <RESULT VALUE>
39

$$$$
>  <GIVEN SMILES>
CCOC(=O)[C@H](Cc1ccc(O)cc1)NC(=O)C1(NC(=O)[C@H](SC(C)=O)C(C)C)CCCC1

>  <PROPERTY>
inhibition

>  <RESULT VALUE>
83

$$$$

Task: Any idea what its inhibition is? The compound is COC(=O)[C@H](Cc1ccc(O)cc1)NC(=O)C1(NC(=O)[C@H](SC(C)=O)C(C)C)CCCC1
Result: 25
